tested on: H1N1 and H3N2 influenza A viruses (PR8, H1N1pdm09, H3N2); experiment: microbe, parasite or virus in culture; assay type: cell-based; settings: read-out: EC50 (50% effective dose)
parameter-measured: EC50

COc1ccc2c(c1)[C@]13CCCC[C@@H]1[C@H](C2)N(C)CC3 :: 5 to 50 µM

INPUT: For the compound shown here, `CN1CCC(=C2c3ccccc3CC(=O)c3sccc32)CC1` , give the reported EC50.
OUTPUT: 5 to 50 µM

====

test system: MDCK cells; assay: MTT assay (cytotoxicity); conditions: MDCK cells, 24 h, MTT
parameter-measured: CC50 (µM)
Response body: numeric value in µM, unit text excluded.

INPUT: What does the data say about its CC50? Entry: O=[N+]([O-])[O-].O=[N+]([O-])[O-].O=[N+]([O-])[O-].[Ga+3] [Gallium nitrate]
OUTPUT: 716
